Here, each record is paired with measured % inhibition ± SD at 10 μΜ CYP2C19 data.
# system: CYP2C19 (Homo sapiens)
# Construct: purchased Corning Inc; host or cells: baculovirus-infected insect cells
# Sequence (P33261 whole entry): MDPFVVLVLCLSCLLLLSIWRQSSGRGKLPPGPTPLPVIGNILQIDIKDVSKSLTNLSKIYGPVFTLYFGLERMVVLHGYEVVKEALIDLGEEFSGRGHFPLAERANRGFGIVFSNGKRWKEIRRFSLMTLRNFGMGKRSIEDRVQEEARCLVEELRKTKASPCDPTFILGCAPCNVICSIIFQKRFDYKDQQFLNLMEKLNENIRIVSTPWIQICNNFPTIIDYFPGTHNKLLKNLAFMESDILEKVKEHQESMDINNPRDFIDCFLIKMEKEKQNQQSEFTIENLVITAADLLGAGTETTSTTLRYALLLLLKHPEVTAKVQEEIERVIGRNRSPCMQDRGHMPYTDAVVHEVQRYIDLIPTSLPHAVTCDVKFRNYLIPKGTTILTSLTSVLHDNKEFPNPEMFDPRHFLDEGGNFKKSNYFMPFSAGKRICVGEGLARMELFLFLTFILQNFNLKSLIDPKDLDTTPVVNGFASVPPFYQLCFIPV
# test.name: Cytochrome P450 inhibition assay (P450-Glo) CYP2C19
# Type: in vitro ADME
# setup.conditions: compounds 10 μM; miltefosine 10 μM or 1 μM

CCCCCCCCCCCCCCCCOP(=O)([O-])OCC[N+](C)(C)C [Miltefosine, hexadecylphosphocholine, reference compound]; 7.92%

Let's switch to this compound now.
Prompt: GET /values?readout=% inhibition ± SD at 10 μΜ CYP2C19&item= C[N+](C)(C)CCOP(=O)([O-])OCCCCCCCCCCCn1cc(CCCCCCCCC(=O)O)nn1
Response: 4.89%

###

# Test system: mitochondria of 786-0 cells
# test.name: Mitochondrial toxicity assay (MitoTracker Red CMXRos, 786-0 cells)
# Format: cell-based
# setup.conditions: compounds 10 μM, miltefosine 10 μM or 1 μM
# Experimental: Mitochondrial toxicity assay: This assay made use of the MitoTracker Red CMXRos dye (Thermo Fischer Scientific, Waltham, MA, USA), which stains the mitochondria in live cells and its accumulation is dependent on the presence of a membrane potential. […] Cells were suspended in 10 mL of prewarmed cell culture media (RPMI-1 640 supplemented with 10% v/v FCS, 100 U/mL penicillin and 100 μg/mL streptomycin) and counted using a Scepter (Merck Millipore, Darmstadt, Germany). […]
quantity.measured: % toxicity ± SD at 10 μΜ Mitochondria (%)
Express it in %; write the number only.

Below are worked cases with known answers.
C[N+](C)(C)CCCOP(=O)([O-])OCCCCCCCCCCCn1cc(CC2CCCCC2)nn1; -1
CCCCCCCCCCc1cc(CCCCCCCCCCOP(=O)([O-])OCC[N+](C)(C)C)no1; 2.99
CCCCCc1cn(CCCCCCCCCCCOP(=O)([O-])OCC[N+](C)(C)C)nn1; 11.05
CCCCCCCc1nnc(CCCCCCCCCCOP(=O)([O-])OCC[N+](C)(C)C)o1; 40.25
CCCCCCCCCCCc1nnc(CCCCCCCCCCOP(=O)([O-])OCC[N+](C)(C)C)o1; 19.78
C[N+](C)(C)CCOP(=O)([O-])OCCCCCn1cc(CCCCCCCCNC(=O)OCc2ccccc2)nn1; 5.07

Prompt: GET /values?readout=% toxicity ± SD at 10 μΜ Mitochondria&item= CCCCCCCCc1noc(CCCCCCCCCCOP(=O)([O-])OCC[N+](C)(C)C)n1
Response: 8.56

Prompt: GET /values?readout=% toxicity ± SD at 10 μΜ Mitochondria&item= C[N+](C)(C)CCOP(=O)([O-])OCCCCCCCCCCCn1cc(CC2CCCC2)nn1
Response: 8.99

Prompt: GET /values?readout=% toxicity ± SD at 10 μΜ Mitochondria&item= C[N+](C)(C)CCOP(=O)([O-])OCCCCCCCCCCCn1cc(CC2CCCCC2)nn1
Response: 1.08

Prompt: GET /values?readout=% toxicity ± SD at 10 μΜ Mitochondria&item= CCCCCCCCCCCCCCCCOP(=O)([O-])OCC[N+](C)(C)C [Miltefosine, hexadecylphosphocholine, reference compound]
Response: 3.99

Prompt: GET /values?readout=% toxicity ± SD at 10 μΜ Mitochondria&item= C[N+](C)(C)CCOP(=O)([O-])OCCCCCn1cc(CCCCCCCCN)nn1
Response: 6.58
